Below are pIC50 values for MERTK (Homo sapiens, UniProt Q12866) collected from several publications.
pIC50: −log10 of the molar value.

- Smiles Repr: "COc1cc2nccc(Oc3cnc(NC(=O)c4cn(C5CC5)cc(-c5ccc(F)cc5)c4=O)nc3)c2cc1OC"
  pIC50: 8.70
- Smiles Repr: "CC1(C)[C@H]2CC=C(CN3CC[C@@H](NC(=O)c4cc(-c5cnn(C6CCNCC6)c5)cnc4N)C3)[C@@H]1C2"
  pIC50: "< 6.00"
- Smiles Repr: "COC(=O)/C=C/c1ccc(C(=O)N2CC[C@@H](NC(=O)c3cc(-c4cnn(C)c4)cnc3N)C2)cc1"
  pIC50: "< 6.00"
- Smiles Repr: "Cn1cc(-c2cnc(N)c(C(=O)N[C@@H]3CCN(C(=O)c4ccc(Br)cc4)C3)c2)cn1"
  pIC50: "< 6.00"
- Smiles Repr: "Nc1ncc(-c2cnn(C3CCOCC3)c2)cc1-c1ccc(-c2ccccc2)o1"
  pIC50: "5.00 to 6.00"
- Smiles Repr: "CC(C)(C)OC(=O)N1CCC(n2cc(-c3cnc(N)c(-c4nnc(-c5ccccn5)o4)c3)cn2)CC1"
  pIC50: "5.00 to 6.00"
- Smiles Repr: "CN(C)CCCOc1ccc2cc(C(=O)N3CC[C@@H](NC(=O)c4cc(-c5cnn(C)c5)cnc4N)C3)ccc2c1"
  pIC50: "6.00 to 7.00"
- Smiles Repr: "Cn1cc(-c2cnc(N)c(C(=O)N[C@@H]3CCN(C(=O)c4ccc(-c5ccc(C(=O)N6CCOCC6)cc5)cc4)C3)c2)cn1"
  pIC50: "< 6.00"
- Smiles Repr: "Cn1cc(-c2cnc(N)c(C(=O)N[C@@H]3CCN(C(=O)c4ccc(-c5cccc(C(=O)N6CCNCC6)c5)cc4)C3)c2)cn1"
  pIC50: "6.00 to 7.00"
- Smiles Repr: "Nc1ncc(-c2cnn(C3CCOCC3)c2)cc1-c1nc(-c2c(Cl)cccc2Cl)no1"
  pIC50: "5.00 to 6.00"
- Smiles Repr: "COc1cc2nccc(Oc3cnc(NC(=O)c4nn(CC5CCOCC5)cc(-c5ccc(C)cc5)c4=O)nc3)c2cc1OC"
  pIC50: 8.52
- Smiles Repr: "COC[C@H](C)Nc1ncc2c(-c3cnn(C[C@@H]4CC(=O)N(C)C4)c3)cc([C@H]3CC[C@H](O)CC3)n2n1"
  pIC50: "≥ 7.00"
- Smiles Repr: "Nc1ncc(-c2cnn(C3CCCCC3)c2)cc1-c1ncc(-c2ccccc2)o1"
  pIC50: "< 5.00"
- Smiles Repr: "COc1cc2nccc(Oc3ccc(NC(=O)c4cn(C(C)C)nc(-c5ccc(F)cc5)c4=O)nc3)c2cc1OC"
  pIC50: 8.70
- Smiles Repr: "CC(C)n1cc(C(=O)Nc2ccc(Oc3ccnc4cc(OCCCN5CCC(C)(O)CC5)c5c(c34)OCCO5)c(F)c2)c(=O)n(-c2ccc(F)cc2)c1=O"
  pIC50: "≥ 7.30"

====

pIC50: −log10 of the molar value.
Below are pIC50 values for MERTK (Homo sapiens) collected from several publications.
Test Readout: pIC50

- Molecule: "COCC(C)Nc1ncc2c(-c3ccc(C4(N5CCN(C)CC5)CC4)cc3)cc(C3CCC(O)CC3)n2n1 (stereo not shown)"
  Test Readout: "pIC50"
  Measured: "≥ 7.00"
- Molecule: "COC[C@H](C)Nc1ncc2c(-c3ccc(C4(N5CCOCC5)CC4)cc3)cc([C@H]3CC[C@H](O)CC3)n2n1"
  Test Readout: "pIC50"
  Measured: "≥ 7.00"
- Molecule: "COC[C@H](C)Nc1ncc2c(-c3ccnc(O[C@@H]4CCN(C)C4)c3)cc([C@H]3CC[C@H](O)CC3)n2n1"
  Test Readout: "pIC50"
  Measured: "≥ 7.00"
- Molecule: "NS(=O)(=O)c1ccc(-c2n[nH]c3ncc(-c4ccc5c(c4)CC[C@@H](N4CCCC4)CC5)cc23)cc1Cl"
  Test Readout: "pIC50"
  Measured: "6.00 to 7.00"
- Molecule: "C=CCn1cc(-c2ccc(F)cc2)c(=O)c(C(=O)Nc2ccc(Oc3ccnc(N)c3Cl)nc2)n1"
  Test Readout: "pIC50"
  Measured: 8.52
- Molecule: "CC(Cc1ccc(F)cc1)Nc1ncc2c(-c3cnn(C4COC4)c3)cc(C3CCC(O)CC3)n2n1 (racemic)"
  Test Readout: "pIC50"
  Measured: "≥ 7.00"
- Molecule: "Cn1cc(-c2cnc(N)c(C(=O)N[C@@H]3CCN(CCCc4ccccc4)C3)c2)cn1"
  Test Readout: "pIC50"
  Measured: "< 6.00"
- Molecule: "COC[C@H](C)Nc1ncc2c(-c3ccnc(N4CCN(CC5COC5)CC4)c3)cc([C@H]3CC[C@H](O)CC3)n2n1"
  Test Readout: "pIC50"
  Measured: "≥ 7.00"
- Molecule: "COC[C@H](C)Nc1ncc2c(-c3cnn(CCC#N)c3)cc([C@H]3CC[C@](C)(O)CC3)n2n1"
  Test Readout: "pIC50"
  Measured: "≥ 7.00"
- Molecule: "C[C@@H]1CCCN1C1CCc2ccc(-c3cnc4[nH]nc(-c5ccc(S(N)(=O)=O)c(Cl)c5)c4c3)cc2CC1 (stereo partly shown)"
  Test Readout: "pIC50"
  Measured: "6.00 to 7.00"
- Molecule: "Cn1cc(-c2cnc(N)c(C(=O)N[C@@H]3CCN(C(=O)c4cccc(-c5cccc(Cn6cccn6)c5)c4)C3)c2)cn1"
  Test Readout: "pIC50"
  Measured: "< 6.00"
- Molecule: "C[C@@H](COC(F)F)Nc1ncc2c(-c3ccc(S(C)(=O)=O)nc3)cc([C@H]3CC[C@H](O)CC3)n2n1"
  Test Readout: "pIC50"
  Measured: "≥ 7.00"
- Molecule: "CCOc1ncc(C2CCN(C)CC2)c2nc(N[C@@H](C)CC)ncc12"
  Test Readout: "pIC50"
  Measured: "6.00 to 7.00"
- Molecule: "C[C@@H](COC(F)F)Nc1ncc2c(-c3ccnc(N4CCOCC4)c3)cc([C@H]3CC[C@H](O)CC3)n2n1"
  Test Readout: "pIC50"
  Measured: "≥ 7.00"
- Molecule: "Cn1cc(-c2cnc(N)c(C(=O)N[C@@H]3CCN(C(=O)c4ccc(-c5ccccc5CO)cc4)C3)c2)cn1"
  Test Readout: "pIC50"
  Measured: "6.00 to 7.00"
- Molecule: "COCC(C)Nc1ncc2c(-c3ccc4ocnc4c3)cc(C3CCC(O)CC3)n2n1 (stereo not shown)"
  Test Readout: "pIC50"
  Measured: "≥ 7.00"
- Molecule: "CCC1(N2CCC[C@H]2C)CCc2ccc(-c3cnc4[nH]nc(-c5ccc(C(N)=O)c(Cl)c5)c4c3)cc2CC1 (stereo partly shown)"
  Test Readout: "pIC50"
  Measured: "> 7.00"
- Molecule: "COC[C@H](C)Nc1ncc2c(-c3ccnc(N4CCOC5(COC5)C4)c3)cc([C@H]3CC[C@H](O)CC3)n2n1"
  Test Readout: "pIC50"
  Measured: "≥ 7.00"
- Molecule: "CN(c1ccc(-c2ccc(C(=O)N3CC[C@@H](NC(=O)c4cc(-c5cnn(C)c5)cnc4N)C3)cc2)cc1)c1ccc([N+](=O)[O-])cc1F"
  Test Readout: "pIC50"
  Measured: "6.00 to 7.00"
- Molecule: "COC[C@H](C)Nc1ncc2c(-c3cnn(C(C)(C)C(=O)N4C[C@@H](C)N[C@@H](C)C4)c3)cc([C@H]3CC[C@@H](O)CC3)n2n1"
  Test Readout: "pIC50"
  Measured: "≥ 7.00"
- Molecule: "COC[C@H](C)Nc1ncc2c(-c3cnn([C@H]4CCOC4)c3)cc([C@H]3CC[C@H](O)CC3)n2n1"
  Test Readout: "pIC50"
  Measured: "≥ 7.00"
- Molecule: "COC[C@H](C)Nc1ncc2c(-c3cnn(C[C@@H]4CCO4)c3)cc([C@H]3CC[C@H](O)CC3)n2n1"
  Test Readout: "pIC50"
  Measured: "≥ 7.00"
- Molecule: "Cn1cc(-c2cnc(N)c(C(=O)N[C@@H]3CCN(C(=O)c4ccc(-c5cc(F)ccc5Cl)cc4Cl)C3)c2)cn1"
  Test Readout: "pIC50"
  Measured: "< 6.00"
- Molecule: "COc1cc2nccc(Oc3ccc(NC(=O)c4cn(CC5CC5)c(=O)n(-c5ccc(F)cc5)c4=O)cc3F)c2c2c1OCCO2"
  Test Readout: "pIC50"
  Measured: "6.30 to 7.30"
- Molecule: "CCOc1ccn(-c2cccc(F)c2)c(=O)c1C(=O)Nc1ccc(Oc2ccnc3cc(OC)c4c(c23)OCCO4)c(F)c1"
  Test Readout: "pIC50"
  Measured: "≥ 7.30"
- Molecule: "C[C@@H](Nc1ncc2c(OC3CCNCC3)ncc([C@H]3CC[C@H](O)CC3)c2n1)c1ccccc1"
  Test Readout: "pIC50"
  Measured: "6.00 to 7.00"
- Molecule: "CN1CCC(Nc2ncc3c(OC4CCNCC4)ncc([C@H]4CC[C@H](O)CC4)c3n2)C1=O (stereo partly shown)"
  Test Readout: "pIC50"
  Measured: "5.00 to 6.00"
- Molecule: "COC[C@H](C)Nc1ncc2c(-c3ccnc(N4CC5(COC5)C4)c3)cc([C@H]3CC[C@H](O)CC3)n2n1"
  Test Readout: "pIC50"
  Measured: "≥ 7.00"
